Consider the following compounds; for each one, report its EC50.
# system.name: UniProtKB P38532
# Sequence (P38532 whole entry): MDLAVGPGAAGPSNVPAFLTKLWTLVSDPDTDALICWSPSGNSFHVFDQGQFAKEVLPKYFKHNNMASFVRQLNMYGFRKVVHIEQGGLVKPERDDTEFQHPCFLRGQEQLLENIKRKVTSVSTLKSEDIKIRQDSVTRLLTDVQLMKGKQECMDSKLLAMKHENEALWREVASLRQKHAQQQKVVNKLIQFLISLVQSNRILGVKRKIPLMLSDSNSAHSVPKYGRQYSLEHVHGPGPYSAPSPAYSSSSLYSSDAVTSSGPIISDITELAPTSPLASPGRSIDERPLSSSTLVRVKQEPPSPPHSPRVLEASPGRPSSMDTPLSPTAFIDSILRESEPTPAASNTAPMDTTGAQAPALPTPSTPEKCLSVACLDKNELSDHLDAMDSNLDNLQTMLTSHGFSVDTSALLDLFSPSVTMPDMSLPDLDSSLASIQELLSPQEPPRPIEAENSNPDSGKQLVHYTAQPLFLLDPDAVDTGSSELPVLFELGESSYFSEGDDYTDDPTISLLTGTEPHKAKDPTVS
# test.description: HSF1 potentiators in luciferase reporter cells, confirmation, cell-based, NIH3T3, luminescence, dose retest (AID 435004);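 note: stress induced by proteasome inhibitor MG132 added 30 min after compound; luciferase reporter driven by HSF1 response element in NIH3T3 cells; actives raise luminescence as potentiators of the MG132 stress response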
# Format: functional
Active and inactive are the calls of the source. Cut-off read from the data, not from the text of the source: actives have a measured EC50 and inactives only a lower limit.

Prompt: Give UniProtKB P38532 EC50 for the following compound: `ON=C1c2ccccc2-c2ccccc21`
Completion: > 260 µM (inactive)

Prompt: Give UniProtKB P38532 EC50 for the following compound: CCC(CO)NCC#Cc1ccccc1 (configuration not stated)
Completion: > 260 µM (inactive)

Prompt: # return EC50 for `O=C(CN1C(=O)/C(=C\c2cccc(Cl)c2)Sc2ccccc21)NCCCN1CCOCC1` , test system: UniProtKB P38532
Completion: 245 µM (active)

Prompt: Param request: EC50 | system UniProtKB P38532 | item `Cc1cccc(N/N=C(\C=O)C(=O)c2ccc(Br)cc2)c1`
Completion: > 260 µM (inactive)

Prompt: Tell me EC50 of `CC(C)(C)Cc1nc2ccccc2n1CCc1ccccc1` when tested on UniProtKB P38532.
Completion: > 260 µM (inactive)

Prompt: Provide UniProtKB P38532 EC50 reading for `COc1ccc(NC(=O)CSc2nc(N)c3cc4c(nc3n2)CCCC4)cc1` .
Completion: 53.3 µM (active)

Prompt: State measured EC50 of the compound `O=C(Nc1ccc(C(=O)N2CCOCC2)cc1)c1cnn2c(C(F)F)cc(-c3ccccc3)nc12` with UniProtKB P38532.
Completion: > 260 µM (inactive)
